// data source = patent US4259332A

test protocol: Acute toxicity, rat
test context: in vivo, intravenous, sodium salt solution
metric: LD50 (mg/kg)

compound="CC(=O)Oc1ccccc1C(=O)OCCN(CCOC(=O)c1ccccc1OC(C)=O)CCS(=O)(=O)O [AST, N,N-di(acetylsalicyloyloxy ethyl)taurine]" reported_measurement=530

====

test protocol: Acute toxicity, mouse
test context: in vivo, sc, subcutaneous, sodium salt solution
metric: LD50

compound="CC(=O)Oc1ccccc1C(=O)OCCN(CCOC(=O)c1ccccc1OC(C)=O)CCS(=O)(=O)O [AST, N,N-di(acetylsalicyloyloxy ethyl)taurine]" reported_measurement="2000 mg/kg"

====

test protocol: Acute toxicity, mouse
test context: in vivo, oral, acid form in carboxymethylcellulose
metric: LD50

molecule=CC(=O)Oc1ccccc1C(=O)OCCN(CCOC(=O)c1ccccc1OC(C)=O)CCS(=O)(=O)O metric=LD50 reported_measurement="5000 mg/kg"

====

test protocol: Acute toxicity, mouse
test context: in vivo, ip, intraperitoneal, sodium salt solution
metric: LD50 (mg/kg)

molecule=CC(=O)Oc1ccccc1C(=O)OCCN(CCOC(=O)c1ccccc1OC(C)=O)CCS(=O)(=O)O metric=LD50 reported_measurement=1300

====

test protocol: Vasodilator activity (vasodilation of the ocular conjunctiva in guinea pigs)
Type: in vivo, guinea pig
test context: 10.0 mg/kg endoperitoneal
A collection of compounds and their measured Vasodilator effect: duration
metric: Vasodilator effect: duration (min)

compound="O=C(OC1C(OC(=O)c2cccnc2)C(OC(=O)c2cccnc2)C(OC(=O)c2cccnc2)C(OC(=O)c2cccnc2)C1OC(=O)c1cccnc1)c1cccnc1 (stereo not shown) [Mesoinosital hexanicotinate, mesoinosital hexanicotinate]" metric="Vasodilator effect: duration" reported_measurement=87
compound=O=C(OCCN(CCS(=O)(=O)O)C(=O)c1cccnc1)c1cccnc1 metric="Vasodilator effect: duration" reported_measurement=120
compound="O=C(O)C(O)C(O)C(=O)O.OCc1cccnc1 (stereo not shown) [3-Pyridylcarbinol tartrate, 3-pyridylcarbinol tartrate]" metric="Vasodilator effect: duration" reported_measurement=120
compound=O=C(O)c1cccnc1 metric="Vasodilator effect: duration" reported_measurement=0
